SYSTEM_TESTED: Mm_Fpr1 (Mus musculus, UniProt P33766)
Construct: expressed in transfected cells
Sequence (P33766 whole entry): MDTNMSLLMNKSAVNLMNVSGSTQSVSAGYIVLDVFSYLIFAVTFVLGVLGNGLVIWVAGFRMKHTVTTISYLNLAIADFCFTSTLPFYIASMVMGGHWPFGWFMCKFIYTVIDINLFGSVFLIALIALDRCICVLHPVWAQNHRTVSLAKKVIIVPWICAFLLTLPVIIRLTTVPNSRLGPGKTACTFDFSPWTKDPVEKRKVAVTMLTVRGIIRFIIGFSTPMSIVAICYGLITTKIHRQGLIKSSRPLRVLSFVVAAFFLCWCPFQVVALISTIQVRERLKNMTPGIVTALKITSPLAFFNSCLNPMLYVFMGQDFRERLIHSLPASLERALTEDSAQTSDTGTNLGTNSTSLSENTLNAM
PROTOCOL_DESCRIPTION: ERK1/2 phosphorylation by Western blotting
Format: cell-based
Where a SMILES comes first, the peptide text is derived from it. The star is where a group is joined. For = O=C*
Below, each entry is listed alongside its reported Emax.
State the answer as a number, implicitly in %.

{"columns": ["COMPOUND", "Emax / %"],
 "data": [
  ["CSCC[C@H](NC=O)C(=O)N[C@@H](CC(C)C)C(=O)N[C@@H](Cc1ccccc1)C(=O)O", 72.7],
  ["COc1cc(F)c([C@@H]2CNC(=O)[C@H]2NC(=O)Nc2ccccc2)c(F)c1", 114],
  ["CSCC[C@H](NC(=O)[C@H](Cc1ccc(O)cc1)NC(=O)[C@H](CCCCN)NC(=O)[C@@H](N)Cc1c[nH]c2ccccc12)C(=O)N[C@H](C(=O)N[C@H](CCSC)C(N)=O)C(C)C", 102]
]}

Turning now to a further compound:
Enquiry: Suppose we examine the compound CSCC[C@H](NC=O)C(=O)N[C@@H](CC(C)C)C(=O)N[C@@H](Cc1ccccc1)C(=O)N[C@@H](CCCCN)C(=O)O [fMLFK, fMet-Leu-Phe-Lys] (For-MLFK-OH) ; what Emax value has been reported?
Return: 140
